- system.name: ~100 representative kinases (Homo sapiens, UniProt Q9Y243)
- Construct: Recombinant protein kinase domains with a concentration of 2 μM
- Sequence (Q9Y243 whole entry, the tested form may be a part): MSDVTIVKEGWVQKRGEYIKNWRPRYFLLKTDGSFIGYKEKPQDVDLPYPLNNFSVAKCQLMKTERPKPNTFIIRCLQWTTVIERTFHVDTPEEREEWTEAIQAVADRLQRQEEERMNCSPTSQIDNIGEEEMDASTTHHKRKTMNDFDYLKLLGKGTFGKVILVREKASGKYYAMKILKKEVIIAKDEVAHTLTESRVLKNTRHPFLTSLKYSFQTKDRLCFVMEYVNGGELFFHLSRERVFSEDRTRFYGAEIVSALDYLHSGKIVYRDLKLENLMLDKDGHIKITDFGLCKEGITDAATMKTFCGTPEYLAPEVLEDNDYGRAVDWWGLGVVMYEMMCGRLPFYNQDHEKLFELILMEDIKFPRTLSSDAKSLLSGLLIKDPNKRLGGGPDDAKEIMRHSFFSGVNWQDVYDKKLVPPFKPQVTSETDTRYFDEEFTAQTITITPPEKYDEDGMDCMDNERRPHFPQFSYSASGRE
- protocol.notes: DSF 100 kinase selectivity screen;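 further: compound tested at 20 µM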
- Type: binding
- conditions: Protein AKT3; average of three replicates
property.name: dTm (K)
All answers are understood in K, so give the number only.

Prompt line: ~100 representative kinases (Homo sapiens, UniProt Q9Y243) / dTm / `O=C(Nc1cccc(-c2c[nH]c3ncnc(N4CCOCC4)c23)c1)c1cccn(-c2ccc(F)cc2)c1=O` : value?
Response line: -0.17

Prompt line: ~100 representative kinases (Homo sapiens, UniProt Q9Y243) / dTm / `O=C(Nc1cccc(-c2c[nH]c3ncnc(N4CCOCC4)c23)c1)C1(C(=O)Nc2ccc(F)c(Br)c2F)CC1` : value?
Response line: -0.00683

Prompt line: ~100 representative kinases (Homo sapiens, UniProt Q9Y243) / dTm / `O=C(Nc1cccc(-c2c[nH]c3ncnc(N4CCOCC4)c23)c1)C1(C(=O)Nc2cc(Br)c(F)cc2F)CC1` : value?
Response line: -0.48

Prompt line: ~100 representative kinases (Homo sapiens, UniProt Q9Y243) / dTm / `O=C(Nc1cccc(-c2c[nH]c3ncnc(N4CCOCC4)c23)c1)C1(C(=O)Nc2ccc(F)cc2F)CC1` : value?
Response line: 0.68

Prompt line: ~100 representative kinases (Homo sapiens, UniProt Q9Y243) / dTm / `CC(C)(C)c1cccc(NC(=O)C2(C(=O)Nc3cccc(-c4c[nH]c5ncnc(N6CCOCC6)c45)c3)CC2)c1` : value?
Response line: 0.15

Prompt line: ~100 representative kinases (Homo sapiens, UniProt Q9Y243) / dTm / `CCNc1nc(Nc2cc(F)c(C(=O)N3CCOCC3)cc2OC)ncc1C(F)(F)F` : value?
Response line: -0.31

Prompt line: ~100 representative kinases (Homo sapiens, UniProt Q9Y243) / dTm / `C[C@@H]1CN(c2cc(-c3n[nH]c4ccc(OC5(C)CC5)cc34)ncn2)C[C@H](C)O1` : value?
Response line: -0.44

Prompt line: ~100 representative kinases (Homo sapiens, UniProt Q9Y243) / dTm / `O=C(Nc1cccc(-c2c[nH]c3ncnc(N4CCOCC4)c23)c1)C1(C(=O)Nc2cccc3c2CCC3)CC1` : value?
Response line: -0.39

Prompt line: ~100 representative kinases (Homo sapiens, UniProt Q9Y243) / dTm / `Cc1cc(NC(=O)C2(C(=O)Nc3cccc(-c4c[nH]c5ncnc(N6CCOCC6)c45)c3)CC2)ccc1F` : value?
Response line: 0.62

Prompt line: ~100 representative kinases (Homo sapiens, UniProt Q9Y243) / dTm / `Cc1cc(F)ccc1NC(=O)C1(C(=O)Nc2cccc(-c3c[nH]c4ncnc(N5CCOCC5)c34)c2)CC1` : value?
Response line: 0.50

Prompt line: ~100 representative kinases (Homo sapiens, UniProt Q9Y243) / dTm / `O=C(Nc1ccccc1)C1(C(=O)Nc2cccc(-c3c[nH]c4ncnc(N5CCOCC5)c34)c2)CC1` : value?
Response line: 0.16

Prompt line: ~100 representative kinases (Homo sapiens, UniProt Q9Y243) / dTm / `Cn1cc(-c2c[nH]c3ncnc(N4CCOCC4)c23)cc1C#N` : value?
Response line: -0.26

Prompt line: ~100 representative kinases (Homo sapiens, UniProt Q9Y243) / dTm / `O=C(Nc1ccc(F)cc1)C1(C(=O)Nc2cccc(-c3c[nH]c4ncnc(N5CCOCC5)c34)c2)CC1` : value?
Response line: 0.65

Prompt line: ~100 representative kinases (Homo sapiens, UniProt Q9Y243) / dTm / `Cc1ccc(-n2nc(C(C)(C)C)cc2NC(=O)Nc2cccc(-c3c[nH]c4nc(Cl)nc(N5CCOCC5)c34)c2)cc1` : value?
Response line: -0.99

Prompt line: ~100 representative kinases (Homo sapiens, UniProt Q9Y243) / dTm / `O=C(Nc1cccc(-c2c[nH]c3ncnc(N4CCOCC4)c23)c1)C1(C(=O)Nc2ccc(F)c(Cl)c2)CC1` : value?
Response line: 1.04

Recorded values, source paper PMC12136037.
